Study System: human BLT1 receptor (Homo sapiens, UniProt Q15722)
Construct: expressed in transfected cells; host or cells: HEK293
Sequence (Q15722 whole entry): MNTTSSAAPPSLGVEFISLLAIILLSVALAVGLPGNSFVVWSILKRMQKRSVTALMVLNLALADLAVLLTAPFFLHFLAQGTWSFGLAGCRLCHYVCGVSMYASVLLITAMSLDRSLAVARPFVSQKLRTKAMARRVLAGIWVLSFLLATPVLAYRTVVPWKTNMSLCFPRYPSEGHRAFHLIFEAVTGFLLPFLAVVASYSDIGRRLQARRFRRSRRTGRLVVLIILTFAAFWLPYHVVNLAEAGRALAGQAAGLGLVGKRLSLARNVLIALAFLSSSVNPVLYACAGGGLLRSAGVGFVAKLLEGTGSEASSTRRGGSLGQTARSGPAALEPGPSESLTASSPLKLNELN
Experimental Protocol: BLT-1 cAMP Assay
Assay type: cell-based
Test Settings: HEK293 cells recombinantly expressing human BLT1; antagonist activity vs forskolin 4 μM and LTB4 2 nM; cAMP (CisBio kit)
Param label: returns T when EC50 < 100 nM, returns F otherwise, including exact equality.

These solved cases illustrate the format of a correct answer.
> print(dat)
                                   compound  discrete.label
1  O=S(=O)(Nc1ccccc1-c1ccc2c(c1)OC[C@H](Cc1cnc(-c3ccccc3)s1)[C@H]2O)C(F)(F)F (single isomer, unassigned)               T
2  O=S(=O)(CC(F)(F)F)Nc1ncc(C(F)(F)F)nc1-c1ccc2c(c1)OC[C@@H](Cc1ccccn1)[C@@H]2O (single isomer, unassigned)               F
3  Cc1nc(C[C@@H]2COc3cc(-c4ccccc4NS(=O)(=O)C(F)(F)F)ccc3[C@H]2O)cs1 (single isomer, unassigned) [Example 56]               F
4  O=S(=O)(CC(F)(F)F)Nc1nccnc1-c1ccc2c(c1)OC[C@@H](Cc1ccccn1)[C@@H]2O (single isomer, unassigned)               F
5  O=S(=O)(Nc1ccccc1-c1ccc2c(c1)OC[C@@H](Cc1nnc(-c3ccc(F)cc3)o1)[C@@H]2O)C(F)(F)F (relative stereo)               F

input: Is EC50 strictly under 100 nM for the entry CS(=O)(=O)Nc1ccccc1-c1ccc2c(c1)OC[C@H](Cc1ccccn1)[C@H]2O (single isomer, unassigned) ?
output: F

input: Is EC50 strictly under 100 nM for the entry Cn1nc(-c2ccccc2)cc1C[C@H]1COc2cc(-c3ccccc3NS(=O)(=O)C(F)(F)F)ccc2[C@@H]1O (racemic) [Example 35] ?
output: F

input: Is EC50 strictly under 100 nM for the entry O=S(=O)(CC(F)(F)F)Nc1ccccc1-c1ccc2c(c1)OC[C@@H](Cc1ccccn1)[C@@H]2O (single isomer, unassigned) [Example 79] ?
output: T

input: Is EC50 strictly under 100 nM for the entry O=S(=O)(Nc1ccccc1-c1ccc2c(c1)OC[C@@H](Cc1ccc(-c3ccccc3)cc1)[C@@H]2O)C(F)(F)F (racemic) [Example 4] ?
output: T

input: Is EC50 strictly under 100 nM for the entry O=S(=O)(Nc1ccccc1-c1ccc2c(c1)OCC(Cc1ccsc1)C2O)C(F)(F)F (racemic) ?
output: T

input: Is EC50 strictly under 100 nM for the entry Cn1nccc1CC1COc2cc(-c3ccccc3NS(=O)(=O)C(F)(F)F)ccc2C1O (racemic) ?
output: F

input: Is EC50 strictly under 100 nM for the entry O=S(=O)(Nc1nccnc1-c1ccc2c(c1)OCC(Cc1ccccn1)C2O)C(F)(F)F (racemic) ?
output: F
